# TARGET SYSTEM: H. sapiens SLC2A9 variant 2 (GLUT9B) (Homo sapiens)
# EXPERIMENTAL DETAILS: GLUT9 functional assay: uric acid uptake in HEK293T cells, allantoin formation by MS/MS as proxy of GLUT9B inhibition
# Format: cell-based
# TEST PARAMETERS: 15 minute assay; HEK293T cells stably expressing GLUT9B and transiently A. oryzae uricase; uric acid 0.3 mM, 37° C.; read-out: 15 min IC50
MEASUREMENT KIND: IC50

# example entries with known answers
>>> result("O=C(O)C1CCN(c2nc(CCCC(F)(F)F)cnc2-c2ccc(C(F)(F)F)cc2)CC1 [Compound 158]")
"500 to 2000 nM"
>>> result("O=C(O)C1CCN(c2nc(CCC(F)(F)F)cnc2-c2ccc3oc(F)cc3c2)CC1 [Compound 60]")
"500 to 2000 nM"
>>> result("Fc1cc(-c2ncc(COCC(F)(F)F)nc2N2CCC(c3nn[nH]n3)CC2)cc2ccoc12 [Compound 65]")
"< 500 nM"
>>> result("COCCCCc1cnc(-c2ccc(OCCOC)cc2)c(N2CCC(C(=O)O)CC2)n1 [Compound 141]")
"< 500 nM"
>>> result("CCCCc1cnc(-c2ccc(F)c(OC)c2)c(N2CCC(C(=O)O)CC2)n1 [Compound 2]")
"> 2000 nM"
>>> result("O=C(O)C1CCN(c2nc(CCC(F)(F)F)cnc2-c2ccc(C(F)(F)F)cc2)CC1 [Compound 162]")
"500 to 2000 nM"
>>> result("COCCOc1ccc(-c2ncc(COCC(F)(F)F)nc2N2CCC(C(=O)O)CC2)cc1 [Compound 33]")
"500 to 2000 nM"

We next turn to a different compound, shown below.
Per the records, this compound ( CCCCc1cnc(-c2ccc(OC)cc2)c(-c2cnc(C(=O)O)nc2)c1 [Compound 23] ) has IC50 equal to > 2000 nM

---

# TARGET SYSTEM: H. sapiens SLC2A9 variant 2 (GLUT9B) (Homo sapiens, UniProt Q9NRM0)
# Sequence (Q9NRM0 1-511 isoform Q9NRM0-2): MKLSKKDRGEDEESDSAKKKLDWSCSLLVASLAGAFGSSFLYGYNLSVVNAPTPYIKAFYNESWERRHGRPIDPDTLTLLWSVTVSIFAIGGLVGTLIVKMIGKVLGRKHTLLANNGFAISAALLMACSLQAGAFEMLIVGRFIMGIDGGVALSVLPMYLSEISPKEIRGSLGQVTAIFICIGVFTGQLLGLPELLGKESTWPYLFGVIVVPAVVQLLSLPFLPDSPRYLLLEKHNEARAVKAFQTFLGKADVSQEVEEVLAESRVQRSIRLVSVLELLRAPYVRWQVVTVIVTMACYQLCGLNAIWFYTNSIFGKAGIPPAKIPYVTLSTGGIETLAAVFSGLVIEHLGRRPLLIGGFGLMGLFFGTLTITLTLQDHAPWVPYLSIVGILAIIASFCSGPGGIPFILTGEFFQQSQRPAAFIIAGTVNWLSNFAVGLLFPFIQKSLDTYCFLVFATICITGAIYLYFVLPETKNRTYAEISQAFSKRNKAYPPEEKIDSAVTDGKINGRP
# EXPERIMENTAL DETAILS: GLUT9 functional assay: uric acid uptake in HEK293T cells, allantoin formation by MS/MS as proxy of GLUT9B inhibition
# Type: cell-based
# TEST PARAMETERS: 60 minute assay; HEK293T cells stably expressing GLUT9B and transiently A. oryzae uricase; uric acid 0.3 mM, 37° C.; read-out: 60 min IC50
Catalogue of IC50 values

>>> result("COCCCc1cnc(-c2ccc3nccn3c2)c(N2CCC(C(=O)O)CC2)n1")
"> 2 µM"

Bench note, H. sapiens SLC2A9 variant 2 (GLUT9B) (Homo sapiens, UniProt Q9NRM0): COCCCc1cnc(-c2ccc3c(c2)OCO3)c(N2CCC3(CC(C(=O)O)C3)C2)c1 (stereo not shown) , IC50 reads 0.5 to 2 µM

Bench note, H. sapiens SLC2A9 variant 2 (GLUT9B) (Homo sapiens, UniProt Q9NRM0): COCCCCCc1cnc(-c2cc(F)c3occc3c2)c(N2CCC(C(=O)O)CC2)n1 , IC50 reads < 0.5 µM

Bench note, H. sapiens SLC2A9 variant 2 (GLUT9B) (Homo sapiens, UniProt Q9NRM0): O=C(O)C1CCN(c2nc(CCCOCC(F)(F)F)cnc2-c2ccc3c(c2)OCO3)CC1 , IC50 reads 0.5 to 2 µM
